Biological target: T1, recombinant human BCMA (ELISA antigen, construct not specified) (human, UniProt Q02223 1-54)
T1 construct: Fc 1-51; Fc/His 1-51; Fc 4-48) was coated in these ELISAs; also called recombinant BCMA; recombinant protein
T1 sequence: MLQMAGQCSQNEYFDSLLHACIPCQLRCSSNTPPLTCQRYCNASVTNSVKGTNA
Test: ELISA on 100 ng coated human BCMA, antibody titrated, anti-human Fab HRP, absorbance 450 nm
Measured EC50 (read off the curve) of individual entries

Use the examples below as a reference point.
anti-BCMA IgG antibody 5D5 (antibody, V domains shown, also called 5D5 WT; 5D5 antibody) VH: EVQLLESGGGLVQPGGSLRLSCAASGFTFSDYGLSWVRQAPGKGLEWVSLIDSSGSSTFYADSVKGRFTISRDNSKNTLYLQMNSLRAEDTAVYYCAKEHGLFDSWGQGTLVTVSS VL: EIVLTQSPGTLSLSPGERATLSCKASQDIDDDINWYQQKPGQAPRLLIYDASLRATGIPDRFSGSGSGTDFTLTISRLEPEDFAVYYCQQSLRTPITFGQGTKLEIKR :: ~0.01 µg/mL
anti-BCMA IgG antibody 5A6 (antibody, V domains shown, also called 5A6 WT; 5A6 antibody) VH: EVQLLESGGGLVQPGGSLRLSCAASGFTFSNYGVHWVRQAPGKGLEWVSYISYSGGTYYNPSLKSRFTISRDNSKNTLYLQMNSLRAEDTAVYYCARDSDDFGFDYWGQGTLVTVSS VL: QSVLTQPPSASGTPGQRVTISCQGDSLRSYYVNWYQQLPGTAPKLLIYDHSKRPTGVPDRFSGSKSGTSASLAISGLRSEDEADYYCQSYDSSTVVFGGGTKLTVLG :: ~0.02 µg/mL
anti-BCMA IgG antibody 5B5 (antibody, V domains shown, also called 5B5 antibody) VH: EVQLLESGGGLVQPGGSLRLSCAASGFTFSGHYWSWVRQAPGKGLEWVSTVSGSGGDTFYADSVKGRFTISRDNSKNTLYLQMNSLRAEDTAVYYCARGHSVMDVWGQGTLVTVSS VL: EIVLTQSPGTLSLSPGERATLSCRASQGIDSYVAWYQQKPGQAPRLLIYDASLRATGIPDRFSGSGSGTDFTLTISRLEPEDFAVYYCQQYNSWPITFGQGTKLEIKR :: ~0.01 µg/mL

Moving on to another binder below.
Prompt: // returns reported EC50 (read off the curve) for input anti-BCMA IgG antibody B58 (antibody, V domains shown, also called B58 antibody) VH: EVQLLESGGGLVQPGGSLRLSCAASGFTFSNYDMSWVRQAPGKGLEWVSWIYPSDSSIYYADSVKGRFTISRDNSKNTLYLQMNSLRAEDTAVYYCARGPFANKYRQFDYWGQGTLVTVSS VL: QSVLTQPPSASGTPGQRVTISCSGSSSNIGSNSVSWYQQLPGTAPKLLIYADSKRPSGVPDRFSGSKSGTSASLAISGLRSEDEADYYCGSWDYSLSGYVFGGGTKLTVL
Response: ~0.01 µg/mL

Data provenance is patent US20210284749A1.
